Tested on: OVCAR-4
PROCEDURE_SUMMARY: NCI tumour cell line growth inhibition, 48 h
Calls of active or inactive are those of the source. Rule as the data show it: active = GI50 up to about 1.1 µM and inactive = higher.
Pick one and only one: active, inactive

Field: example entries. Status: answers known.
CNc1nc(=S)[nH]c2sc3c(c12)CCCC3 :: inactive
Clc1ccc(C2=CC(c3ccccc3)N3C(=N[C@H]4CCCC[C@@H]43)N2)cc1 (stereo partly specified) :: inactive
Nc1c(-c2ccc(Br)cc2)[n+]([O-])c2ccccc2[n+]1[O-] :: inactive
NNC(=O)/C(NC(=O)c1ccccc1)=C(\N)c1ccc(Cl)cc1 :: inactive
Cc1cccc(C)c1NC(=O)C1C(=O)N(c2c(C)cccc2C)C(=O)/C1=N\NC(N)=S (stereo unspecified) :: inactive

stdin: // param item: `O=c1cc(C(F)(F)F)c2cc3c(cc2o1)NCCC3` ; yields the recorded call
stdout: inactive

stdin: // param item: C=C(C)C1CC/C(C)=C/CCC2(C)OC2CC/C(CO)=C\C1O (stereo unspecified) ; yields the recorded call
stdout: inactive

stdin: // param item: `CCC(=O)OC[n+]1ccc2c(C)c3[nH]c4ccccc4c3c(C)c2c1` ; yields the recorded call
stdout: active

stdin: // param item: CC1=NN(C(=O)CC(=O)Nc2cccc(Cl)c2)C(=O)C1/N=N/c1ccc(S(N)(=O)=O)cc1 (stereo unspecified) ; yields the recorded call
stdout: inactive

stdin: // param item: Cc1sc(C)c2c1C(=O)CC2N (stereo unspecified) ; yields the recorded call
stdout: inactive

stdin: // param item: `C=CC(=O)N1C/C(=C\c2ccccc2)C(=O)/C(=C/c2ccccc2)C1` ; yields the recorded call
stdout: inactive
